Molecular target: DNA dC->dU-editing enzyme APOBEC-3F (Homo sapiens) (UniProt Q8IUX4)
Sequence (Q8IUX4 whole entry, looked up): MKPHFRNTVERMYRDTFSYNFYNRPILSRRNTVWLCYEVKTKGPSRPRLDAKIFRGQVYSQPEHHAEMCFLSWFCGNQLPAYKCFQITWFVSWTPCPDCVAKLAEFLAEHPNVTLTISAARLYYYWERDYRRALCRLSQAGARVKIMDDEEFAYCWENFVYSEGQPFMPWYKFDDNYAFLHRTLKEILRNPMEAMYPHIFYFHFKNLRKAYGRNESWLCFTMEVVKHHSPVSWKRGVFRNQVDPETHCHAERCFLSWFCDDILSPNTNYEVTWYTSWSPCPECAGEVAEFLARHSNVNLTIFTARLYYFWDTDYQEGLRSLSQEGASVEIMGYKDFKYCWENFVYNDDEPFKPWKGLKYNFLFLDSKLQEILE
Experiment: qHTS for inhibitors of Vif-A3F interactions: Cherry picks counterscreen; note: potency is the fitted concentration of half-maximal effect; nearly all actives have a fitted effect of over 65% in size
Details: HeLa A3F-eYFP/Vif cells, eYFP fluorescence, 24 h; series mostly up to 46.1 µM
The whole screen tested about 2,100 compounds, of which about 1,100 (52%) were called active. Inconclusive results (about 29%) are left out. So high a share suggests a set chosen from earlier hits. Some of the results follow.
METRIC NAME: Potency

// solved cases for Potency follow
COMPOUND: COc1ccc(-n2c(O)c(/C=N/NS(=O)(=O)c3ccc(C)cc3)c3ccccc3c2=O)cc1OC
OBS VALUE: 18.4 µM (active)
//
COMPOUND: COc1ccc(NC(=O)C2(C)Cc3c(-c4cccc(NC(C)=O)c4)ccnc3O2)cn1 (stereo not given)
OBS VALUE: 7.04 µM (active)
//
COMPOUND: O=C(/C=C/c1ccco1)NC(=S)Nc1cccc(-c2nc3ccccc3o2)c1
OBS VALUE: 4.98 µM (active)

Here is another compound to look at.
Prompt line: Can you look up the measured Potency of COc1ccc(-n2c(O)c(/C=N/NS(=O)(=O)c3cc(C)ccc3C)c3ccccc3c2=O)cc1OC for me?
Response line: 13 µM (active)
